# % hCCR8 internalization with CCL1 300 nM, mAb 10 µg/ml (HTRF) per record follows
target: human CCR8 with a SNAP-tag at the N-terminus (human, UniProt P51685 1-355, SNAP-tag labelled covalently with Lumi4-Terbium); experiment: cell-based or functional assay
Write it as a number; the unit % goes unstated.

Look over these answered cases.
- Ref #3 (antibody, human IgG1, V domains shown) VH: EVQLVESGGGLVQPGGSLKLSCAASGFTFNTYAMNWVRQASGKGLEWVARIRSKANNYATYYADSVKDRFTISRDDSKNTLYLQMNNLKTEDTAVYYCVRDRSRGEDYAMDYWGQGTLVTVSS VL: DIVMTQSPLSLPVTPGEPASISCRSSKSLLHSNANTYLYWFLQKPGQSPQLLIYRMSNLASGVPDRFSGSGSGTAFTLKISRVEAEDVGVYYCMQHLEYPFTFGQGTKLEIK: 103
- Ref #2 (antibody, human IgG1, V domains shown) VH: QVQLVQSGAEVKKPGASVKVSCKASGYTFTSYYMHWVRQAPGQGLEWMGIINPSGGSTSYAQKFQGRVTMTRDTSTSTVYMELSSLRSEDTAVYYCARAVRNRFRFDYWGQGTLVTVSS VL: QSALTQPASVSGSPGQSITISCTGTSSDVGSYNLVSWYQQHPGKAPKLMIYEVSKRPSGVSNRFSGSKSGNTASLTISGLQAEDEADYYCSSYAGSSTFVVFGGGTKLTVL: 90

Now look at this entry.
Which value of % hCCR8 internalization with CCL1 300 nM, mAb 10 µg/ml (HTRF) has been reported for anti-CCR8 mAb 1-24 (antibody, human IgG1, kappa, V domains shown, Humanized mAb, human IgG1 / kappa) VH: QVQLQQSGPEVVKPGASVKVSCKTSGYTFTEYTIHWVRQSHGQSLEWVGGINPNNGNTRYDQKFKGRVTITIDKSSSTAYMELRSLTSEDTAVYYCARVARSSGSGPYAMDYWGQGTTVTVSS VL: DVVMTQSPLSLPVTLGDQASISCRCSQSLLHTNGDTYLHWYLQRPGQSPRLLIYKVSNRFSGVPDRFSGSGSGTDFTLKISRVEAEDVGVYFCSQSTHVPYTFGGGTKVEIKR in the records?
36
